The binders listed here are annotated with their IC50.
- target.system: T1, human Protein S (UniProt P07225 42-676)
- T1 chain: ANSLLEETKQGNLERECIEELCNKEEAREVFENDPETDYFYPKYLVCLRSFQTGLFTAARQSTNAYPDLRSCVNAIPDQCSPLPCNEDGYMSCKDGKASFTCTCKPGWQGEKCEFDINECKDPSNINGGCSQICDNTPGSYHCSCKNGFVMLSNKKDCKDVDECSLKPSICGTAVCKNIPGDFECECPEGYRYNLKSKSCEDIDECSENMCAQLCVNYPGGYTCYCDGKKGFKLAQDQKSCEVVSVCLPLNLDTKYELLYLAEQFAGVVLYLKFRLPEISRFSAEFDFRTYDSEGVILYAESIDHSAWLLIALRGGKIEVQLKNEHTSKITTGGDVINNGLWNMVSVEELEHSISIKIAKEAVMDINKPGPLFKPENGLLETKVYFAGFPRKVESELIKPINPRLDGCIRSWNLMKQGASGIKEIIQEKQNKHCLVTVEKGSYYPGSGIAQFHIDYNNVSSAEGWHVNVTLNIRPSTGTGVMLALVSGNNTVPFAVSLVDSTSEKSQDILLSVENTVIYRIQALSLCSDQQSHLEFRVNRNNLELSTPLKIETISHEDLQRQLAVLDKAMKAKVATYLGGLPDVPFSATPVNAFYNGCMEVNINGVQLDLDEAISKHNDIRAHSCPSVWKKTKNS
- assay.explanation: LANCE competition
assay.readout: IC50 (nM)

> print(dat)
                                  binder  measurement.unit  assay.value
1  Ac-NMEVSAGWYDYNSDTYHEFW-NH2 [JBS3290]                nM          3.4
2  Ac-ESIVSAGWYDYNTDTYYEFT-NH2 [JBS3268]                nM          1.5
3  Ac-EVEVSAGWYDYNDDKYYEFG-NH2 [JBS3276]                nM            3
4  Ac-HWYVSAGWYDYNEDKYYEFE-NH2 [JBS3306]                nM          0.8
5  Ac-EYSVSAGWYDYNTDVYYEFE-NH2 [JBS3266]                nM          1.6
6  Ac-NYIVSAGWYDYNNDEYIEFY-NH2 [JBS3286]                nM          1.3
7  Ac-EYIVTAGWYDYNKDIYYEFK-NH2 [JBS3263]                nM          1.2
